- Experimental Protocol: Ratio of drug level in brain to blood in rat after 1 hr
- Assay type: ADME, tissue-based
- Cond: read-out: BBR
Experimental Endpoint: Kp at 1 h
Please give only the number in your answer, with no unit.

Task item: Which Kp at 1 h value belongs to Cc1cc(C)n(CC23CNCC[C@]2(c2ccc(Cl)c(Cl)c2)C3)n1 (single isomer, unassigned) ?
Reply: 0.8

Task item: Which Kp at 1 h value belongs to Cc1nc(C)n(CC23CNCC[C@]2(c2ccc(Cl)c(Cl)c2)C3)n1 (single isomer, unassigned; enantiomer 1) ?
Reply: 0.4

* * *

- Assay Target: UniProt Q01959
- Sequence (Q01959 whole entry): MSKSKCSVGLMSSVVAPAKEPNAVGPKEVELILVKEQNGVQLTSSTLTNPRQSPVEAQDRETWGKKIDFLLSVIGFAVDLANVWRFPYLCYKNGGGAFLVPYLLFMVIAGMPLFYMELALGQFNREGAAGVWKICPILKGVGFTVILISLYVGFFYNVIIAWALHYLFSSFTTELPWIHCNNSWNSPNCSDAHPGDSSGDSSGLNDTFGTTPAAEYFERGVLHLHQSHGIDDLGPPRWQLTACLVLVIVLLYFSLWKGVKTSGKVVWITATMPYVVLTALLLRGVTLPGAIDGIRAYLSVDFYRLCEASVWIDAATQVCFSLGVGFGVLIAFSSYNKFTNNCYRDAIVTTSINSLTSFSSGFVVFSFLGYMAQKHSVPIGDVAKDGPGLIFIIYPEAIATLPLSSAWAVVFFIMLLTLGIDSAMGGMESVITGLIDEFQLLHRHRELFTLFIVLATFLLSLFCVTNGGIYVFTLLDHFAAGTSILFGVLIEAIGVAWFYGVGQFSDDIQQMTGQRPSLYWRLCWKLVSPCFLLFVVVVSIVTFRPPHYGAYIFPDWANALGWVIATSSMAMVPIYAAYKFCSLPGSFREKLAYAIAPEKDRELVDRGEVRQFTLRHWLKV
- Experimental Protocol: Displacement of [3H]WIN-35428 from human recombinant DAT by scintillation proximity assay
Provide the recorded pKi for the entries that follow.
Please keep in mind that pKi is minus log10 of the molar concentration; only the number is needed.

Task item: Which pKi value belongs to N#Cc1cccn1C[C@@]12CNCC[C@]1(c1ccc(Cl)c(Cl)c1)C2 (racemic) ?
Reply: 7.90

Task item: Which pKi value belongs to Cc1ccc(C)n1C[C@@]12CNCC[C@]1(c1ccc(Cl)c(Cl)c1)C2 (racemic) ?
Reply: 7.70

Task item: Which pKi value belongs to N#Cc1ccn(C[C@@]23CNCC[C@]2(c2ccc(Cl)c(Cl)c2)C3)n1 (racemic) ?
Reply: 7.60

Task item: Which pKi value belongs to Clc1ccc([C@]23CCNCC2(Cn2ccc4ccccc42)C3)cc1Cl (stereo partly drawn) ?
Reply: 7.70

Task item: Which pKi value belongs to Cc1cc(C(F)(F)F)nn1C[C@@]12CNCC[C@]1(c1ccc(Cl)c(Cl)c1)C2 (racemic) ?
Reply: 8.70

Task item: Which pKi value belongs to FC(F)(F)c1ccn(C[C@@]23CNCC[C@]2(c2ccc(Cl)c(Cl)c2)C3)n1 (racemic) ?
Reply: 7.60

Task item: Which pKi value belongs to Cc1cnn(C[C@@]23CNCC[C@]2(c2ccc(Cl)c(Cl)c2)C3)c1 (racemic) ?
Reply: 6.90

Task item: Which pKi value belongs to Cc1cc(C)n(C[C@@]23CNCC[C@]2(c2ccc(Cl)c(Cl)c2)C3)n1 (racemic) ?
Reply: 8.20

Task item: Which pKi value belongs to Clc1ccc([C@]23CCNC[C@@]2(Cn2cncn2)C3)cc1Cl (racemic) ?
Reply: 6.70

Task item: Which pKi value belongs to Cc1csc(C23CNCC[C@]2(c2ccc(Cl)c(Cl)c2)C3)n1 (stereo in doubt; 7) ?
Reply: 7.70

Task item: Which pKi value belongs to Cc1ccn(CC23CNCC[C@]2(c2ccc(Cl)c(Cl)c2)C3)n1 (stereo in doubt) ?
Reply: 7.80

Task item: Which pKi value belongs to Clc1ccc([C@]23CCNCC2(Cn2cc4ccccc4n2)C3)cc1Cl (stereo partly drawn) ?
Reply: 8.40

Task item: Which pKi value belongs to Cc1coc(C[C@@]23CNCC[C@]2(c2ccc(Cl)c(Cl)c2)C3)n1 (racemic) ?
Reply: 7.20

Task item: Which pKi value belongs to Cc1nc(C)n(CC23CNCC[C@]2(c2ccc(Cl)c(Cl)c2)C3)n1 (single isomer, unassigned; enantiomer 1) ?
Reply: 7.80

Task item: Which pKi value belongs to Cc1cnc([C@@]23CNCC[C@]2(c2ccc(Cl)c(Cl)c2)C3)o1 (racemic) ?
Reply: 9.00

Task item: Which pKi value belongs to Cc1csc([C@@]23CNCC[C@]2(c2ccc(Cl)c(Cl)c2)C3)n1 (racemic) ?
Reply: 9.80

Task item: Which pKi value belongs to N#Cc1ccnn1C[C@@]12CNCC[C@]1(c1ccc(Cl)c(Cl)c1)C2 (racemic) ?
Reply: 7.70

Task item: Which pKi value belongs to Clc1ccc([C@]23CCNC[C@@]2(Cn2cccc2)C3)cc1Cl (racemic) ?
Reply: 7.80

All values here come from ChEMBL document CHEMBL1817647.
